molecular target: SIRT1 (Homo sapiens); experiment: Mass spectrometry based assay of SIRT1 activity; format: biochemical; details: activation of SIRT1; read-out: ED50 MS
Readings of EC50 for the listed molecules

Worked cases, EC50 given:
COc1ccc(C(=O)Nc2cccc(-c3nc4cc(C)ccc4[nH]3)c2)cc1OC :: < 50 µM
O=C(Nc1cccc(-c2nc3ncccc3o2)c1)c1ccc(N2CCOCC2)cc1 :: > 150 µM
O=C(Nc1cccc(-c2nc3ncccc3o2)c1)c1ccc(N2CCCCC2)cc1 :: > 150 µM
COc1ccc(C(=O)Nc2cccc(-c3cn4ccc(C)cc4n3)c2)cc1 :: < 50 µM
COc1cc(OC)c(C(=O)Nc2cccc(-c3nc4ncccc4o3)c2)c(OC)c1 :: > 150 µM
O=C(Nc1cccc(-c2nc3ncccc3o2)c1)c1cccc(OC(F)(F)F)c1 :: > 150 µM
COc1cc(C(=O)Nc2cccc(-c3nc4ccccc4c(=O)o3)c2)cc(OC)c1OC :: 51 to 100 µM
CN(C)c1cccc(C(=O)Nc2cc(C(=O)N3CCNCC3)cc(-c3nc4ncccc4o3)c2)c1 :: < 50 µM

Any idea what its EC50 is? The molecule is COc1cc(C(=O)Nc2cc(C(=O)O)cc(-c3nc4ccncc4s3)c2)cc(OC)c1OC
< 50 µM

Then COc1cc(C(=O)Nc2cccc(-c3nc4ccc(C)cc4o3)c2)cc(OC)c1OC ?
< 50 µM

----------
molecular target: human SIRT3 (Homo sapiens); construct: The SIRT3 protein used in the assays corresponded to amino acid residues 102-399 of human SIRT3; His-tag (N); made in house; host or cells: E. coli; assay: Fluorescence polarization assay of SIRT3 activity (Histone H4-based peptide substrate); format: biochemical; details: inhibition of SIRT3 (Table 7)
Sequence (Q9NTG7 102-399): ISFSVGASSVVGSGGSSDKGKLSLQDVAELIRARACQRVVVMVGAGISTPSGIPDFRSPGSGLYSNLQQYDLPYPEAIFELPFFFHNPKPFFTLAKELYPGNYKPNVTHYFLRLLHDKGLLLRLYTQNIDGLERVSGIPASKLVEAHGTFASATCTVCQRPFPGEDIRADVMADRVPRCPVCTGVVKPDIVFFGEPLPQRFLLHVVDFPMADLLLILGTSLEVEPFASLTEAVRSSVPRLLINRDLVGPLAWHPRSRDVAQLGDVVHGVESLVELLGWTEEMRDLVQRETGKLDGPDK
pIC50: −log10 of the molar value.
measurement.label: pIC50

Given the molecule N#Cc1cccc(C(=O)Nc2ccc(-c3cc(C(N)=O)co3)cc2)c1 [Compound 16] , what is its reported pIC50?
3.82 to 4.00

----------
biological target: SIRT1 (Homo sapiens, UniProt Q96EB6); assay: Mass spectrometry based assay of SIRT1 activity; assay type: biochemical; details: activation of SIRT1; read-out: ED50 MS
measurement.label: EC50

COc1ccc(C(=O)Nc2cccc(-c3nc4cc(C(C)C)ccc4o3)c2)cc1OC [Compound 122] :: 101 to 150 µM
COc1ccc(C(=O)Nc2cccc(-c3nc4ncccc4o3)c2)cc1 [Compound 54] :: > 150 µM
COc1cc(C(=O)Nc2cccc(-c3cn4cccc(C)c4n3)c2)cc(OC)c1OC [Compound 131] :: < 50 µM
COc1ccc(C(=O)Nc2cccc(-c3nc4ncccc4o3)c2)c(C(F)(F)F)c1 [Compound 40] :: > 150 µM
COc1cc(C(=O)Nc2cccc(-c3nc4ccncc4s3)c2)cc(OC)c1OC [Compound 115] :: < 50 µM
O=C(Nc1cccc(-c2nc3ncccc3o2)c1)c1ccccc1 [Compound 56] :: < 50 µM

Given the entry COc1cccc(OC)c1C(=O)Nc1cccc(-c2nc3ncccc3o2)c1 [Compound 46] , report its measured EC50.
> 150 µM

Another compound to check: COc1cc(C(=O)Nc2cccc(-c3cn4ccsc4n3)c2)cc(OC)c1OC [Compound 118]
< 50 µM

COc1ccc(C(=O)Nc2cc(C(=O)O)cc(-c3nc4ncccc4o3)c2)cc1OC [Compound 137] , same question.
> 150 µM

----------
target: SIRT1 (Homo sapiens, UniProt Q96EB6); assay: Fluorescence polarization assay of SIRT1 activity (p53-based peptide substrate); format: biochemical; conditions: activation of SIRT1; peptide 1 for Compounds 1-18, peptide 2 for Compounds 19-164; read-out: ED50 FP
pEC50: −log10 of the molar value.
measurement.label: pEC50

These solved cases illustrate the format of a correct answer.
CN(C)c1cccc(C(=O)Nc2cccc(-c3nc4ncccc4o3)c2)c1 :: > 4.30
COc1cc(OC)c(C(=O)Nc2cccc(-c3nc4ncccc4o3)c2)c(OC)c1 :: < 3.82
O=C(Nc1cc(NC(=O)c2ccccc2)c(C(=O)O)cc1C(=O)O)c1ccccc1 :: < 3.82
COc1ccccc1C(=O)Nc1cccc(-c2nc3ncccc3o2)c1 :: > 4.30

Could you now look at the following compound, please?
Item under review: COc1ccc(C(=O)Nc2cccc(-c3nc4ncccc4o3)c2)c(OC)c1OC . Reported pEC50?
< 3.82

----------
The compounds listed here are annotated with their EC50.
molecular target: SIRT1 (Homo sapiens, UniProt Q96EB6); assay: Mass spectrometry based assay of SIRT1 activity; format: biochemical; conditions: activation of SIRT1; read-out: ED50 MS

In the examples that follow, each entry is paired with its recorded EC50.
COc1ccc(C(=O)Nc2cccc(-c3cnc4ccccc4n3)c2)cc1OC :: 101 to 150 µM
COc1ccc(C(=O)Nc2cccc(-c3nc4cccnc4o3)c2)cc1OC :: < 50 µM
COc1ccc(C(=O)Nc2cccc(-c3nc4ncccc4o3)c2)cc1C(F)(F)F :: > 150 µM
COc1ccccc1C(=O)Nc1cccc(-c2cn3ccsc3n2)c1 :: < 50 µM
CN(C)c1cccc(C(=O)Nc2cccc(-c3nc4cccnc4o3)c2)c1 :: < 50 µM

Give its EC50 value. Item: COC(=O)c1cc(NC(=O)c2cc(OC)c(OC)c(OC)c2)cc(-c2nc3ccncc3s2)c1
< 50 µM

Can you check COc1ccc(C(=O)Nc2cccc(-c3nc4ncccc4o3)c2)cc1Cl next?
101 to 150 µM

Likewise for COc1cccc(C(=O)Nc2cccc(-c3nc4cc(Cl)cc(Cl)c4o3)c2)c1 ?
> 150 µM

Same for CN(C)c1cccc(C(=O)Nc2cccc(-c3nc4ncccc4o3)c2)c1
< 50 µM

----------
Molecular target: SIRT1 (Homo sapiens)
Sequence (Q96EB6 1-747): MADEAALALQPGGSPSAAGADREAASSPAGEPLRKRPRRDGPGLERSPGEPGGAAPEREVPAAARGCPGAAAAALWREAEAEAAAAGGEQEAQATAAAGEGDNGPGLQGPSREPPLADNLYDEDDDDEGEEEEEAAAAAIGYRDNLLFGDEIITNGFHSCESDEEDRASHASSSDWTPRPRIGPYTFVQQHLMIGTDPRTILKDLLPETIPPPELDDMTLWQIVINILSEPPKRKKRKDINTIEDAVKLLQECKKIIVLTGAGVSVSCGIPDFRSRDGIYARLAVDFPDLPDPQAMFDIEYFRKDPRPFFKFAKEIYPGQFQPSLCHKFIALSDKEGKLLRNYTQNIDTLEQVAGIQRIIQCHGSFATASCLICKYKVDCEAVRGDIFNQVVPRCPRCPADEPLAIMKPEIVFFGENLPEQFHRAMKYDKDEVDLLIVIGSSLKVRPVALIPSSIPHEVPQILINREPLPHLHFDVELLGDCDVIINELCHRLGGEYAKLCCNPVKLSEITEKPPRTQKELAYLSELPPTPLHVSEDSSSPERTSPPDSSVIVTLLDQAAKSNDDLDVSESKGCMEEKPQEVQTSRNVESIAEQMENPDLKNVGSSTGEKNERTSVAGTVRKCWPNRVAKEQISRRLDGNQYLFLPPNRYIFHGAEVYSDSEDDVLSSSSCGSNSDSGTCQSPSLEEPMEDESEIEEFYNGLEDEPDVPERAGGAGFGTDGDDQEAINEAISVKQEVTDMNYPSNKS
Assay: Fluorescence polarization assay of SIRT1 activity (p53-based peptide substrate)
Type: biochemical
Details: activation of SIRT1; peptide 1 for Compounds 1-18, peptide 2 for Compounds 19-164; read-out: ED50 FP
Description: A fluorescence polarization or mass spectrometry based assay was used to identify modulators of SIRT1 activity. The same assay may be used to identify modulators of any sirtuin protein. The fluorescence polarization assays utilizes one of two different peptides based on a fragment of p53, a known sirtuin deacetylation target. […]
measurement.label: EC50

CN(C)c1ccc(C(=O)Nc2cccc(-c3nc4ncccc4o3)c2)cc1 [Compound 43] :: < 50 µM

// lookup EC50 for COc1cc(C(=O)Nc2cc(Cl)ccc2C(=O)O)ccc1OC(C)=O [Compound 10]
> 150 µM

// repeat for O=C(Nc1cccc(-c2nc3ncccc3o2)c1)c1ccccc1 [Compound 56] and report
> 150 µM

Then COc1ccc(C(=O)Nc2cccc(-c3nc4ncccc4o3)c2)c(C(F)(F)F)c1 [Compound 40] ?
> 150 µM

For COc1ccc(C(=O)Nc2cccc(-c3nc4ncccc4o3)c2)cc1OC [Compound 52] then?
< 50 µM

Please answer likewise for COc1ccccc1C(=O)Nc1cccc(NC(=O)c2ccco2)c1 [Compound 6]
> 150 µM

Queued: COc1cccc(OC)c1C(=O)Nc1cccc(-c2nc3ncccc3o2)c1 [Compound 46]
> 150 µM

----------
Molecular target: SIRT1 (Homo sapiens, UniProt Q96EB6)
Sequence (Q96EB6 1-747): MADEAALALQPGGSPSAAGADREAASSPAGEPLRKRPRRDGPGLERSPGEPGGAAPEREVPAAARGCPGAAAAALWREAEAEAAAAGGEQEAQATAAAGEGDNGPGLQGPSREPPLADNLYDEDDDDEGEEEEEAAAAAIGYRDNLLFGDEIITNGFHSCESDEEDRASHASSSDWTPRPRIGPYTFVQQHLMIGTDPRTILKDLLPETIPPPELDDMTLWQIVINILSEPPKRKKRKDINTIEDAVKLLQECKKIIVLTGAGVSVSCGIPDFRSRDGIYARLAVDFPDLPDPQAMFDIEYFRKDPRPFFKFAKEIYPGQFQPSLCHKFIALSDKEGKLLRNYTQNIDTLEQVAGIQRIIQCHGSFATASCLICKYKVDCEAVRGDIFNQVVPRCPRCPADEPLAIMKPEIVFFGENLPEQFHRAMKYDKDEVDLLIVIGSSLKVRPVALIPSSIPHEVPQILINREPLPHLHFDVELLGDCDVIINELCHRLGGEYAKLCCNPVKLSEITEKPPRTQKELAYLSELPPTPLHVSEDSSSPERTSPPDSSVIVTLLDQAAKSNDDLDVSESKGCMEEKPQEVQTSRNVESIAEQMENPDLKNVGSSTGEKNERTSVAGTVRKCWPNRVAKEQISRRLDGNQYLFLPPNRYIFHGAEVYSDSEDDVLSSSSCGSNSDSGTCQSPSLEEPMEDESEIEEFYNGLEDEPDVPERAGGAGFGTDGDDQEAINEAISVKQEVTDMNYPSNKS
Assay: Fluorescence polarization assay of SIRT1 activity (p53-based peptide substrate)
Format: biochemical
Details: activation of SIRT1; peptide 1 for Compounds 1-18, peptide 2 for Compounds 19-164; read-out: ED50 FP
measurement.label: EC50

As a guide, the following entries are already answered.
COc1cc(C)ccc1C(=O)Nc1cccc(-c2nc3ncccc3o2)c1 [Compound 51] :: < 50 µM
COc1cc(NC(=O)c2cccc(Br)c2)c(C(=O)O)cc1OC [Compound 5] :: 51 to 100 µM
COc1ccc(C(=O)Nc2cccc(-c3nc4ncccc4o3)c2)c(OC)c1 [Compound 55] :: < 50 µM

Field request: EC50 | item: O=C(Nc1ccccc1C(=O)O)c1cccc(C(=O)Nc2ccccc2C(=O)O)c1 [Compound 3]
51 to 100 µM
